Data provenance is patent US20130338106A1.

Entries annotated with measured pIC50
molecular target: LRRK2 G2019S mutant kinase (Homo sapiens, UniProt Q5S007, G2019S); construct: GST; experiment: LRRK2 G2019S LanthaScreen TR-FRET kinase assay; settings: LRRK2 G2019S GST-tagged protein, 100 μM ATP, LRRKtide substrate; read-out: IC50 (potency)
Sequence (Q5S007 whole entry G2019S): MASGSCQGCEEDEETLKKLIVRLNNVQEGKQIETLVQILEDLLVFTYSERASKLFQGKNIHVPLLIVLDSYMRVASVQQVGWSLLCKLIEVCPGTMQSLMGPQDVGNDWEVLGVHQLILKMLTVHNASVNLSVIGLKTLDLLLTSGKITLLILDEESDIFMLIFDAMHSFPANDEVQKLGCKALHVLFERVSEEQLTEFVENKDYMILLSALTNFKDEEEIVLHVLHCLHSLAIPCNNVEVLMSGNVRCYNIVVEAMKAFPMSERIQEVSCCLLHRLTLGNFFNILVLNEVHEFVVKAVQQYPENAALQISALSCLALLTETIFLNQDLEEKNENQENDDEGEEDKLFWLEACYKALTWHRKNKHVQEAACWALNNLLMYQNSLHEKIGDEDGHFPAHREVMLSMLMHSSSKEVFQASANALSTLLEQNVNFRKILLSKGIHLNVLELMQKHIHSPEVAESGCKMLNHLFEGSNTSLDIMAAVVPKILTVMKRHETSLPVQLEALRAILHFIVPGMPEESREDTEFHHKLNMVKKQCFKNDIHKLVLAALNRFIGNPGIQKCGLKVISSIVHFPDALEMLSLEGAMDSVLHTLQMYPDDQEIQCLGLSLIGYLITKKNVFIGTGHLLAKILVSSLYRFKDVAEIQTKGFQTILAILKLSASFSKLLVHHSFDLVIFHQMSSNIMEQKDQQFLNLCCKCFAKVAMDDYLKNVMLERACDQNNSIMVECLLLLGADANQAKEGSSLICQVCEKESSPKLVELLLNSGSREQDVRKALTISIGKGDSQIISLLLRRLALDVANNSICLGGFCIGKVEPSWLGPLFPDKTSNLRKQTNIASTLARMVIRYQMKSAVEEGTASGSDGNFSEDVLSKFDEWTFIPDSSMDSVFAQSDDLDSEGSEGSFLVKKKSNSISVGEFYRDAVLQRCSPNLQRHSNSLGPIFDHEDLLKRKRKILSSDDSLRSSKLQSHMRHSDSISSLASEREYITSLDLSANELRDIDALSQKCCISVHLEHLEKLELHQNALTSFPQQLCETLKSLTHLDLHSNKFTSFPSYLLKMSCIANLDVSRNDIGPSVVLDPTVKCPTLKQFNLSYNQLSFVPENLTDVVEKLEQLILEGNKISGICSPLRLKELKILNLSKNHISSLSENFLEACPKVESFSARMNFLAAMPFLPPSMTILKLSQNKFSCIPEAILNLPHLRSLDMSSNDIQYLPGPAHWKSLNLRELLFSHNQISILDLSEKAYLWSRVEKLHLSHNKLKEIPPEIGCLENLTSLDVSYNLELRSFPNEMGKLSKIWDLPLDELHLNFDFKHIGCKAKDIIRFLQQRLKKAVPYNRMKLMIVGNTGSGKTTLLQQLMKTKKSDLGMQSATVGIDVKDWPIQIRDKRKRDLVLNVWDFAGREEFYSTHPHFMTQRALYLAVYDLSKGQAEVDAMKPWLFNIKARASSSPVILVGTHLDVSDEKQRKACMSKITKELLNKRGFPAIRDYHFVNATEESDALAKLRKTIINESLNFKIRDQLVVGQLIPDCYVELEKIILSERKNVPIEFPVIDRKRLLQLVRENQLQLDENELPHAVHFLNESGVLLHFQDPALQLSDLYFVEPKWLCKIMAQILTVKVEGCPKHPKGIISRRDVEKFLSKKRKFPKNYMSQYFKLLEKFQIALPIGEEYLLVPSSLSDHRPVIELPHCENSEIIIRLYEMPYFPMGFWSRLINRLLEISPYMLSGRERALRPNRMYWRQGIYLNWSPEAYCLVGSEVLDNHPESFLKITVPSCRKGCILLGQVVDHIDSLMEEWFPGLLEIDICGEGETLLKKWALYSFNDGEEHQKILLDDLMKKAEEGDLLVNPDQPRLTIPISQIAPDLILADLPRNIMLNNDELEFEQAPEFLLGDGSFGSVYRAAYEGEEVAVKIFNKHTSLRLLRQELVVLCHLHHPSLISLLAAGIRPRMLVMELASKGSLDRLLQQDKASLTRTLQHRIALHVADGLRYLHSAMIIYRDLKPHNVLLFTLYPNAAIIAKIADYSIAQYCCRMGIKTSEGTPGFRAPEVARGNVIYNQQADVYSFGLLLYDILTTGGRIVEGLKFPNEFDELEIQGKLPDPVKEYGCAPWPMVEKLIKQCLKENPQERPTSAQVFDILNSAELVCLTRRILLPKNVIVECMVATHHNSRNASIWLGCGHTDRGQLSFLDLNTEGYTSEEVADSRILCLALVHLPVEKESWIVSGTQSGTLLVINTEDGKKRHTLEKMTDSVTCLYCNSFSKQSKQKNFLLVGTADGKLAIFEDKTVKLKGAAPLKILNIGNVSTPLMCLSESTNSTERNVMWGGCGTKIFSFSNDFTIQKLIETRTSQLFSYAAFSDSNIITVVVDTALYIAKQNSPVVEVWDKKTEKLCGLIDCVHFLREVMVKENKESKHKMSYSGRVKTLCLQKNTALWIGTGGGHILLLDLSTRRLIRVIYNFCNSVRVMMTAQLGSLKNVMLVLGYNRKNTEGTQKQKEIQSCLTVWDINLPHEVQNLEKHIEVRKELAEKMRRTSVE
pIC50: −log10 of the molar value.

{"Smiles Notation": "N#Cc1ccc(NC(=O)n2ccc(-c3sc(NC4CCCC4)c4c3CCCC4=O)n2)cc1", "pIC50": 6.48}
{"Smiles Notation": "CC1(C)CC(=O)c2c(SC3CCCC3)sc(-c3ccn(C(=O)NC4CCN(C(=O)C(F)(F)F)CC4)n3)c2C1", "pIC50": 6.48}
{"Smiles Notation": "COc1ccc(NC(=O)n2ccc(-c3sc(SC4CCCC4)c4c3CC(C)(C)CC4=O)n2)cc1", "pIC50": 6.96}
{"Smiles Notation": "CC1(C)CC(=O)c2c(SCc3ccco3)sc(-c3cc[nH]n3)c2C1", "pIC50": 6.35}
